Items are presented alongside their recorded growth.
# Test system: COLO 205 colon
# protocol details: NCI-60 one-dose screen, 48 h (100 = growth as untreated, 0 = no growth, -100 = all killed)
# settings: 10 µM
About 83,000 compounds went through this panel and 20% of them were active in at least one assay; those are over-represented in the sample as a whole.
Response body: numeric value in %, unit text excluded.

molecule: COc1cc(Nc2nc(O)c(/C=C3\C=Nc4ccccc43)s2)cc(OC)c1OC
growth [%]: -5.44

molecule: O=[N+]([O-])c1cccc(-c2nnc3c(/C=C/c4ccccc4O)nc4ccccc4n23)c1
growth [%]: 41.3

molecule: CC1[C@H]2[C@H](C[C@H]3[C@@H]4CC=C5c6sc(Nc7cccc(Cl)n7)nc6CC[C@]5(C)[C@H]4CC[C@@]32C)O[C@]12CC[C@@H](C)CO2 (stereo partly drawn)
growth [%]: 70.2

molecule: COc1ccc(Cn2cc(C#N)c(N)c2C(C)=O)c(OC)c1
growth [%]: 125

molecule: C#C[C@]1(O)CC[C@H]2[C@@H]3CC=C4c5sc(Nc6cc(C)cc(C)n6)nc5CC[C@]4(C)[C@H]3CC[C@@]21C
growth [%]: -95.5

Prompt: Which growth reading was recorded for the molecule CC1(C)CC[C@]2(C(=O)O)CC[C@]3(C)C(=CCC4[C@@]5(C)C[C@@H](O)[C@@H]6OC(c7cccc(F)c7)OC[C@@]6(C)C5CC[C@]43C)C2C1 (stereo partly drawn) ?
Response: 15.2

Prompt: Please answer likewise for COc1ccc(C(=O)COc2ccc(NC(=O)Nc3ccccc3)cc2)cc1
Response: 107

Prompt: What would you report for COc1ccccc1-n1cc(C#N)c(N)c1C(=O)c1ccc(Cl)cc1Cl ?
Response: 19.6

Prompt: Param item: COc1ccc(C2OC[C@@]3(C)C4CC[C@]5(C)C(CC=C6C7CC(C)(C)CC[C@]7(C(=O)O)CC[C@]65C)[C@@]4(C)C[C@@H](O)[C@@H]3O2)cc1 (stereo partly drawn)
Response: 78.8

Prompt: And for O=C(Nc1ccc(OCc2ccc(F)cc2)cc1)Nc1ccc(Cl)c(C(F)(F)F)c1 ?
Response: -79.2
